Experiment: Selectivity index, ratio of IC50 for cytotoxicity against human MRC5 cells to IC50 for antiproliferative activity against human HT-29 cells
Conditions: MRC5 cells versus HT-29 cells
Each item that follows carries a reported selectivity ratio.

# compoundStructure, selectivity ratio
data = [
    ("N#Cc1c(/N=C/c2cccnc2)c(C(=O)Nc2ccc(Br)cc2)n2c1CCC2", "1 to 10"),
    ("CC/C=N/c1c(C#N)c2n(c1C(=O)Nc1ccc(Br)cc1)CCC2", "24 to 152"),
    ("CC(C)C/C=N/c1c(C#N)c2n(c1C(=O)Nc1ccc(Br)cc1)CCC2", "39 to 258"),
    ("N#Cc1c(/N=C/c2ccco2)c(C(=O)Nc2ccc(Br)cc2)n2c1CCC2", "1 to 10"),
    ("N#Cc1c(/N=C/c2ccc(O)cc2)c(C(=O)Nc2ccc(Br)cc2)n2c1CCC2", "2 to 52"),
    ("N#Cc1c(/N=C/c2ccc(Cl)cc2)c(C(=O)Nc2ccc(Br)cc2)n2c1CCC2", "2 to 52"),
    ("N#Cc1c(/N=C/c2ccccc2)c(C(=O)Nc2ccc(Br)cc2)n2c1CCC2", "2 to 52"),
    ("N#Cc1c(/N=C/c2cccs2)c(C(=O)Nc2ccc(Br)cc2)n2c1CCC2", "1 to 10"),
]

###

Each item that follows carries a reported Activity.
Biological target: Tyrosine-protein kinase Blk (Homo sapiens) (UniProt P51451)
Sequence (P51451 2-505 limits assumed): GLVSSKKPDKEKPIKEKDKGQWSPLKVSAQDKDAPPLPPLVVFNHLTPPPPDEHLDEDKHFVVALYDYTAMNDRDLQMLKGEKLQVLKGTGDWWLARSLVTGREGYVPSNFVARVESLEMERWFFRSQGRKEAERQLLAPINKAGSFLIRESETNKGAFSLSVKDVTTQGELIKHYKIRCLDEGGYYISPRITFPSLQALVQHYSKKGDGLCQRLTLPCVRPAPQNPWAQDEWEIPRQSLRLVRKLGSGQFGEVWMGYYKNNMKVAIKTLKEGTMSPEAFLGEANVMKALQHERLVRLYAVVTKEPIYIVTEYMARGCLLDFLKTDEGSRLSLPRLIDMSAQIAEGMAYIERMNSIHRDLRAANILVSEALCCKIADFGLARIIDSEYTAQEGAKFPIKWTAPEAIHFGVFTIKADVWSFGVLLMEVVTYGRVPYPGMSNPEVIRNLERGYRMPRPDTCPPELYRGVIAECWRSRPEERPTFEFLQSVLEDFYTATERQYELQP
Assay: Inhibition of recombinant human N-terminal GST-tagged full length BLK expressed in baculovirus infected Sf9 insect cells assessed as enzyme activity incubated for 15 mins by [gamma-33]ATP based scintillation counting method relative to control
Design: scale not given: the % may be the effect or the level left
quantityMeasured: Activity (%)

# molecule, systemName, quantityMeasured, resultUnit, numericResult
data = [
    ("CC/C=N/c1c(C#N)c2n(c1C(=O)Nc1ccccc1)CCC2", "Tyrosine-protein kinase Blk (Homo sapiens) (UniProt P51451)", "Activity", "%", -32),
    ("CCC1SCC(=O)N1c1c(C#N)c2n(c1C(=O)Nc1ccccc1)CCC2 (centres undefined)", "Tyrosine-protein kinase Blk (Homo sapiens) (UniProt P51451)", "Activity", "%", 26),
    ("Cc1ccc(NC(=O)c2ccc(CN3CCN(C)CC3)cc2)cc1Nc1nccc(-c2cccnc2)n1", "Tyrosine-protein kinase Blk (Homo sapiens) (UniProt P51451)", "Activity", "%", -3),
    ("CC(C)C/C=N/c1c(C#N)c2n(c1C(=O)Nc1ccc(Br)cc1)CCC2", "Tyrosine-protein kinase Blk (Homo sapiens) (UniProt P51451)", "Activity", "%", 7),
]

###

Biological target: Epidermal growth factor receptor (Homo sapiens)
Assay: Inhibition of EGFR (unknown origin) assessed as enzyme activity incubated for 15 mins by [gamma-33]ATP based scintillation counting method relative to control
Design: scale not given: the % may be the effect or the level left

# compound, Activity [%]
rows = [
    ("Cc1ccc(NC(=O)c2ccc(CN3CCN(C)CC3)cc2)cc1Nc1nccc(-c2cccnc2)n1", 13),
    ("CC(C)C/C=N/c1c(C#N)c2n(c1C(=O)Nc1ccc(Br)cc1)CCC2", 40),
    ("CCC1SCC(=O)N1c1c(C#N)c2n(c1C(=O)Nc1ccccc1)CCC2 (centres undefined)", 10),
    ("CC/C=N/c1c(C#N)c2n(c1C(=O)Nc1ccccc1)CCC2", -10),
]

###

Each item that follows carries a reported selectivity ratio.
Assay: Selectivity index, ratio of IC50 for cytotoxicity against human MRC5 cells to IC50 for antiproliferative activity against human MCF7 cells
Details: MRC5 cells versus MCF7 cells

# compound, selectivity ratio
data = [
    ("N#Cc1c(/N=C/c2ccc(O)cc2)c(C(=O)Nc2ccc(Br)cc2)n2c1CCC2", "2 to 52"),
    ("CC(C)C/C=N/c1c(C#N)c2n(c1C(=O)Nc1ccc(Br)cc1)CCC2", "39 to 258"),
    ("CCC1SCC(=O)N1c1c(C#N)c2n(c1C(=O)Nc1ccccc1)CCC2 (configuration not stated)", "3 to 15"),
    ("CC/C=N/c1c(C#N)c2n(c1C(=O)Nc1ccc(Br)cc1)CCC2", "24 to 152"),
    ("N#Cc1c(/N=C/c2ccco2)c(C(=O)Nc2ccc(Br)cc2)n2c1CCC2", "1 to 10"),
    ("CCC1SCC(=O)N1c1c(C#N)c2n(c1C(=O)Nc1ccc(C)cc1)CCC2 (configuration not stated)", "3 to 15"),
    ("CCC1SCC(=O)N1c1c(C#N)c2n(c1C(=O)Nc1ccccc1)CCCC2 (configuration not stated)", "3 to 15"),
]

###

Lab note: IC50 readings collected with Prostaglandin G/H synthase 1 (Homo sapiens, UniProt P23219) for the following compounds.
Sequence (P23219 whole entry): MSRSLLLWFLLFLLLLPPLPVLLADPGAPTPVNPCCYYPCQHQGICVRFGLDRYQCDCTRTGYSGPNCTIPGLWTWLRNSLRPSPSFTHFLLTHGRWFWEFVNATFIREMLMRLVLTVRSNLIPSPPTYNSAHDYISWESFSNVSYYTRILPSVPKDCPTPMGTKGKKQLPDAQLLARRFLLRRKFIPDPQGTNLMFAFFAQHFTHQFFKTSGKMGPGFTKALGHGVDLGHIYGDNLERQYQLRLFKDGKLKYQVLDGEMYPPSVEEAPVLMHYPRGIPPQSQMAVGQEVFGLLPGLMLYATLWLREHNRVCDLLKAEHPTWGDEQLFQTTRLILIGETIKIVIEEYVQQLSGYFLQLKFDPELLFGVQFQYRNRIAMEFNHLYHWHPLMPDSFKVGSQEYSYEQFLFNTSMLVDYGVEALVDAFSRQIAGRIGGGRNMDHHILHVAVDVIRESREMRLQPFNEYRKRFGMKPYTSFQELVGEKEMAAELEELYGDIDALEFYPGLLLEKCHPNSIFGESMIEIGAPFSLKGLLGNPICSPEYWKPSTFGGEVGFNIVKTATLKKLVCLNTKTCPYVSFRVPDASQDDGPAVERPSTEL
quantityMeasured: IC50

# compoundStructure, systemName, quantityMeasured, result
records = [
    ("CC(C)C/C=N/c1c(C#N)c2n(c1C(=O)Nc1ccc(Br)cc1)CCC2", "Prostaglandin G/H synthase 1 (Homo sapiens, UniProt P23219)", "IC50", "> 100 µM"),
    ("CC/C=N/c1c(C#N)c2n(c1C(=O)Nc1ccccc1)CCCC2", "Prostaglandin G/H synthase 1 (Homo sapiens, UniProt P23219)", "IC50", "27.2 µM"),
    ("N#Cc1c(/N=C/c2cccs2)c(C(=O)Nc2ccc(Br)cc2)n2c1CCC2", "Prostaglandin G/H synthase 1 (Homo sapiens, UniProt P23219)", "IC50", "> 100 µM"),
    ("N#Cc1c(/N=C/c2cccnc2)c(C(=O)Nc2ccc(Br)cc2)n2c1CCC2", "Prostaglandin G/H synthase 1 (Homo sapiens, UniProt P23219)", "IC50", "> 100 µM"),
]

###

Experiment: Selectivity index, ratio of IC50 for cytotoxicity against human MRC5 cells to IC50 for antiproliferative activity against human A2780 cells
Settings: MRC5 cells versus A2780 cells
Each item that follows carries a reported selectivity ratio.
quantityMeasured: selectivity ratio

# compound, result
rows = [
    ("CC(C)C/C=N/c1c(C#N)c2n(c1C(=O)Nc1ccc(Br)cc1)CCC2", "39 to 258"),
    ("N#Cc1c(/N=C/c2cccnc2)c(C(=O)Nc2ccc(Br)cc2)n2c1CCC2", "1 to 10"),
    ("CCC1SCC(=O)N1c1c(C#N)c2n(c1C(=O)Nc1ccc(Cl)cc1)CCC2 (stereo not drawn)", "3 to 15"),
]
